- assayed-system: Proteasome Macropain subunit MB1 (Homo sapiens, UniProt P28074)
- Sequence (P28074 whole entry): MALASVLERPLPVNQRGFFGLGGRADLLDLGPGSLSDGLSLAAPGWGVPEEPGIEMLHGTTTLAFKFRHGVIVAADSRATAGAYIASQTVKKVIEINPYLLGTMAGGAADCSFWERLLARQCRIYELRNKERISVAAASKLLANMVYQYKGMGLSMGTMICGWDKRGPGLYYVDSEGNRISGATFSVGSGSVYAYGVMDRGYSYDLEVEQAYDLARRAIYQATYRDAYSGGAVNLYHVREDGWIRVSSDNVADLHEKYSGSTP
- assay-comment: Inhibition of chymotrypsin-like activity of 20S proteasome (unknown origin) using succinyl-leu-leu-val-tyr-7-amino-4-methyl coumarin as substrate after 15 mins by fluorescent spectroscopic method
readout-type: IC50 (nM)
Give the value, in units of nM, as a plain number.

# get_value(readout= IC50, system= Proteasome Macropain subunit MB1 (Homo sapiens, UniProt P28074)) for COc1ccc2c(c1)C(CC(=O)N[C@@H](CC(C)C)C(=O)N[C@H](CC(C)C)C(=O)NCc1c(F)cccc1F)CC2=O (stereo partly specified) 140

###

- assay-comment: Antiproliferative activity against human RPMI8226 cells measured after 72 hrs by MTS assay
- Assay type: functional, cell-based
- measurement-conditions: RPMI-8226, 72 h
readout-type: pIC50
The value called pIC50 is obtained by taking minus log10 of the concentration in mol/L.

| query-smiles | endpoint-result |
| --- | --- |
| CC(C)C[C@H](NC(=O)N1CCC(C(=O)Nc2cnccn2)CC1)C(=O)N[C@@H](CCc1ccccc1)C(=O)NCc1ccccc1Cl | 6.43 |

Request the reported pIC50 associated with CC(C)C[C@H](NC(=O)[C@H](CCc1ccccc1)NC(=O)CN1CCOCC1)C(=O)N[C@@H](Cc1ccccc1)C(=O)N[C@@H](CC(C)C)C(=O)[C@@]1(C)CO1 7.88

Request the reported pIC50 associated with O=C(Nc1nccs1)C1CCN(C(=O)N[C@@H](CCc2ccccc2)C(=O)N[C@@H](CCc2ccccc2)C(=O)NCc2ccccc2Cl)CC1 7.53
